Source: paper PMC6001238

Tested on: E. faecalis VRE 53
Assay: MIC, broth microdilution, vancomycin-resistant E. faecalis VRE 53 (VanA)
Type: cell-based, Enterococcus faecalis
Details: Enterococcus faecalis VRE 53 (vancomycin-resistant); read-out: MIC
# maps each entry to its MIC

# COMPOUND, SUBJECT OF TEST, MIC / µM
records = [
    ("CCCCc1ccc(NC(=O)CNC(=O)[C@H]2NC(=O)[C@H]3NC(=O)[C@H](NC(=O)[C@@H]4NC(=O)[C@H](CC(N)=O)NC(=O)[C@H](NC(=O)[C@@H](CC(C)C)NC)[C@H](O)c5ccc(c(Cl)c5)Oc5cc4cc(c5O[C@@H]4O[C@H](CO)[C@@H](O)[C@H](O)[C@H]4O[C@H]4C[C@](C)(N)[C@H](O)[C@H](C)O4)Oc4ccc(cc4Cl)[C@H]3O)c3ccc(O)c(c3)-c3c(O)cc(O)cc32)cc1 [Vanc-39]", "E. faecalis VRE 53", 50),
    ("CCOc1ccc(-c2ccc(NC(=O)CNC(=O)C3NC(=O)C4NC(=O)C(NC(=O)C5NC(=O)C(CC(N)=O)NC(=O)C(NC(=O)C(CC(C)C)NC)C(O)c6ccc(c(Cl)c6)Oc6cc5cc(c6OC5OC(CO)C(O)C(O)C5OC5CC(C)(N)C(O)C(C)O5)Oc5ccc(cc5Cl)C4O)c4ccc(O)c(c4)-c4c(O)cc(O)cc43)cc2)cc1 (stereo not drawn) [Vanc-86]", "E. faecalis VRE 53", 12.5),
    ("CN[C@H](CC(C)C)C(=O)N[C@H]1C(=O)N[C@@H](CC(N)=O)C(=O)N[C@H]2C(=O)N[C@H]3C(=O)N[C@H](C(=O)N[C@H](C(=O)O)c4cc(O)cc(O)c4-c4cc3ccc4O)[C@H](O)c3ccc(c(Cl)c3)Oc3cc2cc(c3O[C@@H]2O[C@H](CO)[C@@H](O)[C@H](O)[C@H]2O[C@H]2C[C@](C)(N)[C@H](O)[C@H](C)O2)Oc2ccc(cc2Cl)[C@H]1O [Vancomycin]", "E. faecalis VRE 53", 400),
]

* * *

# maps each entry to its IC50
System: human T-lymphocyte (CEM) cells
Assay: Cytostatic activity, CEM cell proliferation
Format: cell-based
Conditions: mean ± SD of three experiments; highest concentration tested 250 µM; 3 days; read-out: Toxicity (IC50) CEM

# COMPOUND, MODIFIER, IC50, µM
records = [
    ("CCCCC[N+](C)(C)CCCNC(=O)c1ccc(NC(=O)CNC(=O)C2NC(=O)C3NC(=O)C(NC(=O)C4NC(=O)C(CC(N)=O)NC(=O)C(NC(=O)C(CC(C)C)NC)C(O)c5ccc(c(Cl)c5)Oc5cc4cc(c5OC4OC(CO)C(O)C(O)C4OC4CC(C)(N)C(O)C(C)O4)Oc4ccc(cc4Cl)C3O)c3ccc(O)c(c3)-c3c(O)cc(O)cc32)cc1 (centres unmarked) [Vanc-80]", ">", 250),
    ("CN[C@H](CC(C)C)C(=O)N[C@H]1C(=O)N[C@@H](CC(N)=O)C(=O)N[C@H]2C(=O)N[C@H]3C(=O)N[C@H](C(=O)N[C@H](C(=O)NCC(=O)Nc4c(C)cc(C)cc4C)c4cc(O)cc(O)c4-c4cc3ccc4O)[C@H](O)c3ccc(c(Cl)c3)Oc3cc2cc(c3O[C@@H]2O[C@H](CO)[C@@H](O)[C@H](O)[C@H]2O[C@H]2C[C@](C)(N)[C@H](O)[C@H](C)O2)Oc2ccc(cc2Cl)[C@H]1O [Vanc-9]", "=", 240),
    ("CNC(CC(C)C)C(=O)NC1C(=O)NC(CC(N)=O)C(=O)NC2C(=O)NC3C(=O)NC(C(=O)NC(C(=O)NCC(=O)Nc4ccc(-c5ccccc5)cc4)c4cc(O)cc(O)c4-c4cc3ccc4O)C(O)c3ccc(c(Cl)c3)Oc3cc2cc(c3OC2OC(CO)C(O)C(O)C2OC2CC(C)(N)C(O)C(C)O2)Oc2ccc(cc2Cl)C1O (centres unmarked) [Vanc-83]", "=", 37),
    ("CN[C@H](CC(C)C)C(=O)N[C@H]1C(=O)N[C@@H](CC(N)=O)C(=O)N[C@H]2C(=O)N[C@H]3C(=O)N[C@H](C(=O)N[C@H](C(=O)NCCNC(=O)/C=C/c4ccc(Cl)cc4)c4cc(O)cc(O)c4-c4cc3ccc4O)[C@H](O)c3ccc(c(Cl)c3)Oc3cc2cc(c3O[C@@H]2O[C@H](CO)[C@@H](O)[C@H](O)[C@H]2O[C@H]2C[C@](C)(N)[C@H](O)[C@H](C)O2)Oc2ccc(cc2Cl)[C@H]1O [Vanc-20]", "=", 146),
    ("CNC(CC(C)C)C(=O)NC1C(=O)NC(CC(N)=O)C(=O)NC2C(=O)NC3C(=O)NC(C(=O)NC(C(=O)NCCCNC(=O)c4ccc(C(F)(F)F)cc4)c4cc(O)cc(O)c4-c4cc3ccc4O)C(O)c3ccc(c(Cl)c3)Oc3cc2cc(c3OC2OC(CO)C(O)C(O)C2OC2CC(C)(N)C(O)C(C)O2)Oc2ccc(cc2Cl)C1O (centres unmarked) [Vanc-32]", "=", 200),
    ("CN[C@H](CC(C)C)C(=O)N[C@H]1C(=O)N[C@@H](CC(N)=O)C(=O)N[C@H]2C(=O)N[C@H]3C(=O)N[C@H](C(=O)N[C@H](C(=O)NCC(=O)Nc4ccc(Cl)cc4)c4cc(O)cc(O)c4-c4cc3ccc4O)[C@H](O)c3ccc(c(Cl)c3)Oc3cc2cc(c3O[C@@H]2O[C@H](CO)[C@@H](O)[C@H](O)[C@H]2O[C@H]2C[C@](C)(N)[C@H](O)[C@H](C)O2)Oc2ccc(cc2Cl)[C@H]1O [Vanc-6]", "=", 159),
    ("CNC(CC(C)C)C(=O)NC1C(=O)NC(CC(N)=O)C(=O)NC2C(=O)NC3C(=O)NC(C(=O)NC(C(=O)NCC(=O)Nc4ccc(-c5cn(-c6ccc(C)cc6)nn5)cc4)c4cc(O)cc(O)c4-c4cc3ccc4O)C(O)c3ccc(c(Cl)c3)Oc3cc2cc(c3OC2OC(CO)C(O)C(O)C2OC2CC(C)(N)C(O)C(C)O2)Oc2ccc(cc2Cl)C1O (centres unmarked) [Vanc-76]", "=", 3.2),
    ("CCCCCn1cc(-c2ccc(NC(=O)CNC(=O)C3NC(=O)C4NC(=O)C(NC(=O)C5NC(=O)C(CC(N)=O)NC(=O)C(NC(=O)C(CC(C)C)NC)C(O)c6ccc(c(Cl)c6)Oc6cc5cc(c6OC5OC(CO)C(O)C(O)C5OC5CC(C)(N)C(O)C(C)O5)Oc5ccc(cc5Cl)C4O)c4ccc(O)c(c4)-c4c(O)cc(O)cc43)cc2)nn1 (centres unmarked) [Vanc-91]", "=", 107),
    ("CN[C@H](CC(C)C)C(=O)N[C@H]1C(=O)N[C@@H](CC(N)=O)C(=O)N[C@H]2C(=O)N[C@H]3C(=O)N[C@H](C(=O)N[C@H](C(=O)NCCNC(=O)/C=C/c4ccc(F)cc4)c4cc(O)cc(O)c4-c4cc3ccc4O)[C@H](O)c3ccc(c(Cl)c3)Oc3cc2cc(c3O[C@@H]2O[C@H](CO)[C@@H](O)[C@H](O)[C@H]2O[C@H]2C[C@](C)(N)[C@H](O)[C@H](C)O2)Oc2ccc(cc2Cl)[C@H]1O [Vanc-22]", ">", 250),
    ("CN[C@H](CC(C)C)C(=O)N[C@H]1C(=O)N[C@@H](CC(N)=O)C(=O)N[C@H]2C(=O)N[C@H]3C(=O)N[C@H](C(=O)N[C@H](C(=O)NCC(=O)Nc4ccc5c(c4)Cc4ccccc4-5)c4cc(O)cc(O)c4-c4cc3ccc4O)[C@H](O)c3ccc(c(Cl)c3)Oc3cc2cc(c3O[C@@H]2O[C@H](CO)[C@@H](O)[C@H](O)[C@H]2O[C@H]2C[C@](C)(N)[C@H](O)[C@H](C)O2)Oc2ccc(cc2Cl)[C@H]1O [Vanc-42]", "=", 92),
    ("CN[C@H](CC(C)C)C(=O)N[C@H]1C(=O)N[C@@H](CC(N)=O)C(=O)N[C@H]2C(=O)N[C@H]3C(=O)N[C@H](C(=O)N[C@H](C(=O)NCC(=O)Nc4cccc(F)c4)c4cc(O)cc(O)c4-c4cc3ccc4O)[C@H](O)c3ccc(c(Cl)c3)Oc3cc2cc(c3O[C@@H]2O[C@H](CO)[C@@H](O)[C@H](O)[C@H]2O[C@H]2C[C@](C)(N)[C@H](O)[C@H](C)O2)Oc2ccc(cc2Cl)[C@H]1O [Vanc-10]", ">", 250),
]
